Numbers sourced from PubChem BioAssay.

assay: inhibitors of TNFa-induced NFkB p65 translocation, primary screen, imaging, HUVEC, MLSMR starter and 10KST1 sets (AID 438); conditions: HUVEC TNFa-induced p65 nuclear translocation; measured here: nuclei count (cytotoxicity indicator), at 2.08 µM;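 note: compound added about 3h40 before a 20 min TNFalpha stimulation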

# compound, cell count
measured = [
    ("COc1ccccc1CNC(=O)C1CCCN(S(=O)(=O)c2cnc[nH]2)C1 (stereo unspecified)", 443),
    ("CCOC(=O)c1ccccc1NC(=O)c1ccc(NS(C)(=O)=O)cc1", 485),
    ("Fc1cccc(Cl)c1Cn1nnc2c(NCc3ccccn3)ncnc21", 716),
    ("CCOC(=O)CC1=C(C(=O)OCC)C(c2ccc(C)o2)C(C#N)=C(N)O1 (stereo unspecified)", 339),
    ("Cc1cc(N2CCC3(CC2)OCCO3)n2nc(C)c(-c3ccc(Cl)cc3)c2n1", 495),
    ("Cc1ccc2c(c1C)NC(=O)C2(O)CC(=O)c1ccc2c(c1)OCO2 (stereo unspecified)", 788),
    ("COCCn1c(COc2ccc(Cl)cc2)nnc1SCC(N)=O", 424),
    ("Cc1cc(C)n(-c2ccc(C(=O)Nc3ccc4c(c3)OCCO4)cc2)n1", 529),
    ("COc1ccc(-n2c(=O)c3c4c(sc3n3cnnc23)CC(C)CC4)cc1 (stereo unspecified)", 370),
    ("C=CCn1c(SCC(=O)C(C)(C)C)nnc1-c1ccccn1", 583),
    ("O=C(O)c1ccc(-c2ccc(O)c(F)c2)cc1", 677),
]

====

Below, each of the compounds is paired with its reported cell count value.
experiment: inhibitors of TNFa-induced NFkB p65 translocation, primary screen, imaging, HUVEC, MLSMR starter and 10KST1 sets (AID 438); settings: HUVEC TNFa-induced p65 nuclear translocation; measured here: nuclei count (cytotoxicity indicator), at 2.08 µM;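 note: compound added about 3h40 before a 20 min TNFalpha stimulation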

# compound, cell count
measured = [
    ("Cc1ccc(Nc2nc(N)nc(CN3CCCCCC3)n2)cc1", 350),
    ("COc1cccc(C2=Nn3c(nnc3-c3ccccc3O)SC2)c1", 436),
    ("Cc1ccc(C(=O)Nc2ccc3c(c2)OCO3)cc1S(=O)(=O)N1CCCC1", 396),
    ("Cc1ccc2c(C)nc(Nc3nc(CSc4nnnn4-c4ccccc4)cc(=O)[nH]3)nc2c1", 352),
    ("O=C(Nc1cccc2ccccc12)N1CCOCC1", 654),
    ("O=C(c1ccco1)N1CCN(/C(=N/S(=O)(=O)c2cccs2)c2ccccc2Cl)CC1", 852),
    ("Cc1nn(C)c(C)c1CNC(=O)c1cc2n(n1)C(C(F)(F)F)CC(c1cccs1)N2 (stereo not drawn)", 565),
    ("O=C(Nc1nnc(COc2ccc(F)cc2)s1)c1cccs1", 585),
    ("CCOC(=O)c1c(C)[nH]c(C)c1C(=O)COC(=O)CNC(=O)c1ccc(OCC)cc1", 708),
    ("COc1cc2c(cc1OC)C(C)N(C(=O)c1cc3n(n1)C(C(F)(F)F)CC(c1ccco1)N3)CC2 (stereo not drawn)", 591),
    ("CSc1nc2ccc(Nc3nc(N4CCOCC4)nc(N4CCOCC4)n3)cc2s1", 391),
    ("CCCOc1ccccc1NC(=O)c1c(-c2ccccc2)noc1C", 800),
    ("CS(=O)(=O)NCCSCc1c(F)cccc1Cl", 270),
    ("CCOC(=O)c1c(NC(=O)c2nn(CC)cc2Br)c(C#N)cn1-c1ccccc1", 467),
    ("Nn1c(SCc2csc(-c3ccccc3)n2)nnc1-c1cccs1", 387),
    ("COc1ccccc1N(CN1CCCC1=O)C(=O)c1c(F)cccc1Cl", 370),
    ("CCOC(=O)N1CCN(S(=O)(=O)c2ccc(OCC)c(C)c2)CC1", 604),
    ("CN1CC=C2C(C#N)=C(N)C(C#N)(C#N)C(Cc3ccccc3)C2C1 (stereo not drawn)", 556),
    ("S=c1[nH]ncn1-c1ccccn1", 681),
    ("CCN1CCN(C(=O)C2CC(c3ccc(F)cc3)=NO2)CC1 (stereo not drawn)", 538),
    ("CC1(C)C(=O)Nc2ccccc2N1C(=O)COC(=O)Cn1cnc2ccccc2c1=O", 465),
    ("CCOC(=O)c1ccccc1NC(=O)N1CCn2c(C)ccc2C1CC (stereo not drawn)", 383),
    ("N#CC1=C(N)Oc2cc(O)ccc2C1C1CCCCC1 (stereo not drawn)", 527),
]

====

target: Voltage-gated potassium channel subunit beta-2 (Rattus norvegicus) (UniProt P62483); experiment: enhancers of rat Kvbeta2 NADPH turnover – biochemical, NADPH fluorescence, primary screen (AID 623); conditions: Recombinant KvBeta, NADPH fluorescence decrease slope, 10 min; at 10 µM; stronger effect = lower value;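 note: fluorescence intensity change per second fitted from 20 to 320 s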
Sequence (P62483 whole entry, looked up): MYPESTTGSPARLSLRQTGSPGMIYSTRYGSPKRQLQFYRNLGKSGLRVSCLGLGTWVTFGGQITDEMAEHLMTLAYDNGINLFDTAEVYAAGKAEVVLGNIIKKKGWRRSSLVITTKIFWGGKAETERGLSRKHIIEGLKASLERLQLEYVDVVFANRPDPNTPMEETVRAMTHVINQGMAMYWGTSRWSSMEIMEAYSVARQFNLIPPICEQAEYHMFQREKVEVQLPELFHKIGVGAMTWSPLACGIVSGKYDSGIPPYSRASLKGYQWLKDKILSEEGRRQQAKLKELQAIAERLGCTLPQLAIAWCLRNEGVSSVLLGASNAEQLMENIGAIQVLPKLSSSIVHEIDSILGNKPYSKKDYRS
Some molecules, each annotated with its measured NADPH fluorescence slope.

# molecule, NADPH fluorescence slope
data = [
    ("Cc1cccc(Nc2nc(N)nc(CN3CCC(C(N)=O)CC3)n2)c1C", "-2.1e-05"),
    ("O=C(OC1CCOC1=O)c1ccc(S(=O)(=O)N2CCCCCC2)cc1 (stereo not given)", "7.8e-06"),
    ("COC(=O)c1cc(OC)c(OCc2cc(C(=O)OC)oc2C)c(OC)c1", "-6.5e-05"),
    ("Cc1cccc(N2CCN(C(=O)Cn3nc(Cc4ccncc4)c4ccccc4c3=O)CC2)c1C", "-4.2e-05"),
    ("O=C1CC(c2cccc(Cl)c2)Cc2nc(N3CCN(c4ccccc4)CC3)ncc21 (stereo not given)", "2.5e-05"),
    ("O=C(c1cc(S(=O)(=O)N2CCOCC2)ccc1F)N1CCCc2ccccc21", "-4.2e-05"),
    ("CC1(C)C(=O)Nc2ccccc2N1C(=O)COC(=O)Cn1cnc2ccccc2c1=O", "-1.3e-05"),
    ("CCCNC(=O)NC(C(=O)OC)C12CC3CC(CC(C3)C1)C2 (stereo not given)", "-1.6e-05"),
    ("CCCC(=O)Nc1nc2ccc(S(N)(=O)=O)cc2s1", "5.8e-05"),
    ("Cc1ccccc1C1CC(c2ccccc2)Nc2ncnn21 (stereo not given)", "-1.4e-06"),
    ("O=C(CSc1nnc(-c2ccco2)n1-c1ccccc1)N1CCN(C(=O)c2ccco2)CC1", "-1.7e-05"),
    ("CCOC(=O)c1ccc(N2Cc3cc(C)c(C)cc3C2)cc1O", "-1.3e-05"),
    ("CC(=O)SCCC(=O)Nc1ccccc1", "3.1e-06"),
    ("O=C(Cn1nnc2ccccc2c1=O)NC1CCCc2ccccc21 (stereo not given)", "-1.6e-05"),
    ("O=C(NCc1nnc(SCC(=O)N2CCC(Cc3ccccc3)CC2)o1)c1ccccc1F", "-5.6e-05"),
    ("CC(=O)NC(Cc1ccccc1)C(=O)NC1CCN(C(=O)c2cnccn2)CC1 (stereo not given)", "-2.5e-05"),
    ("CC(=O)NC(CCS(C)(=O)=O)C(=O)Nc1cccc2ccccc12 (stereo not given)", "-3.4e-05"),
    ("Cc1nc2cc(C(=O)O)ccc2n1-c1ccc(F)cc1F", "-4.1e-05"),
    ("CC(C)Cn1c(CN2CCCCC2C)nc2c1c(=O)n(C)c(=O)n2C (stereo not given)", "-1.5e-05"),
    ("Cc1cc(NC(=O)c2ccc3c(c2)C(=O)N(Cc2cccnc2)C3=O)no1", "1.2e-05"),
    ("CCCOc1ccc(S(=O)(=O)NCCCN2CCOCC2)c2ccccc12", "-4.8e-05"),
    ("CCc1cc2c(=O)n(C(C)C(=O)OC3CCCCC3)cnc2s1 (stereo not given)", "-3.4e-05"),
    ("O=C(NCC1CCCO1)C1CCCN(S(=O)(=O)c2cccc3nsnc23)C1 (stereo not given)", "6e-05"),
    ("CCN(C(=O)c1cc(Cl)ccc1OC)C1CCCCC1", "-6.2e-05"),
    ("c1ccc(CN2C3=NCCCN3c3ccccc32)cc1", "-1.3e-05"),
    ("CCCNC(=O)c1ccccc1C(=O)NCCC", 0.000133),
    ("Cc1cc(C(=O)N2CCN(C/C=C/c3ccccc3)CC2)no1", "1.9e-06"),
    ("CCOC(=O)C1CCCN(Cc2nc(N)nc(Nc3ccc(C)cc3)n2)C1 (stereo not given)", -0.000102),
    ("CCOC(=O)Cc1nnc2c(Nc3ccccc3F)nc3nonc3n12", "-7e-06"),
    ("N#Cc1nc(-c2ccco2)oc1NCCc1ccccc1", "-4.3e-05"),
    ("Nc1sccc1C(=O)c1ccc(Cl)cc1", "-2.6e-05"),
    ("O=S(=O)(c1ccc(Br)s1)N1CCN(c2ccccc2)CC1", "-3e-05"),
    ("Cc1c(NC(=O)c2ccc(CN3CCc4ccccc4C3)cc2)c(=O)n(-c2ccccc2)n1C", "-4.1e-05"),
    ("Cc1nn(C(=O)c2ccc3c(c2)OCO3)c(N)c1-c1ccccc1", "1.4e-05"),
    ("CCCCCn1c(N2CCN(Cc3ccccc3)CC2)nc2c1c(=O)[nH]c(=O)n2C", "-2.8e-05"),
    ("[O-][n+]1c2ccc3nonc3c2nn1-c1ccccc1Cl", "-5.7e-05"),
    ("CCOc1ccc(-c2nc(C#N)c(NCc3ccc4c(c3)OCO4)o2)cc1", "-4.4e-05"),
    ("CCOC(=O)N1CCN(C(=O)c2ccc3c(=O)n(Cc4ccc(OC)cc4)c(=S)[nH]c3c2)CC1", "-2.2e-05"),
    ("N#Cc1nc(-c2ccco2)oc1N1CCN(c2cccc(Cl)c2)CC1", "2.4e-05"),
    ("O=C1N(CCCCN2C(=O)C3(OCCO3)c3ccccc32)c2ccccc2C12OCCO2", "2.4e-05"),
    ("CCOC(=O)N1CCN(C(=O)CN2C(=O)COc3ccc(C)cc32)CC1", "-3.7e-05"),
    ("Cc1cccc2sc(NC(=O)Cn3cccc3)nc12", "-2.8e-05"),
    ("COc1ccc(C2CC(c3ccco3)n3ncnc3N2)cc1 (stereo not given)", "-6.8e-05"),
    ("Cc1ccc2c(c1)N(CC(=O)Nc1ccc3c(c1)OCCO3)C(=O)CO2", "-5e-05"),
    ("O=C(NCC1CCCO1)C1CCC(CNS(=O)(=O)c2ccccc2)CC1 (stereo not given)", "-4e-05"),
]
